# Tested on: Pseudomonas aeruginosa
# procedure.text: Antibacterial activity against Pseudomonas aeruginosa MTCC 25668 after 24 hrs by broth microdilution method
# Assay type: functional
# experimental.conditions: MTCC 25668, 24 h
Property: MIC; scope: individual compounds

Cc1ccc2oc(=O)cc(C(CC(=O)O)c3c(O)c4ccccc4oc3=O)c2c1 (stereo not given): 25 µg/mL
N#CC1=C(N)Oc2c(c(=O)oc3ccccc23)C1c1cc(=O)oc2ccc(Cl)cc12 (stereo not given): 6.25 µg/mL
Cc1ccc2oc(=O)cc(C3CC(=O)Oc4c3c(=O)oc3ccccc43)c2c1 (stereo not given): 25 µg/mL
CCOC(=O)C1=C(N)Oc2c(c(=O)oc3ccccc23)C1c1cc(=O)oc2ccc(Cl)cc12 (stereo not given): 1.56 µg/mL

For CCOC(=O)C1=C(N)Oc2c(c(=O)oc3ccccc23)C1c1cc(=O)oc2ccc(C)cc12 (stereo not given) on Pseudomonas aeruginosa, measured MIC was 6.25 µg/mL

###

# System: Pseudomonas aeruginosa
# procedure.text: Antibacterial activity against Pseudomonas aeruginosa MTCC 25668 after 24 hrs by broth microdilution method
# Type: functional
# experimental.conditions: MTCC 25668, 24 h
value.type: MIC (µg/mL)
Numeric answer only, unit µg/mL assumed.

Examples with their reported MIC follow.
Cc1ccc2c(C3C(C#N)=C(N)Oc4c3c(=O)oc3ccccc43)cc(=O)oc2c1 (stereo not given): 1.56
COc1ccc2oc(=O)cc(C(CC(=O)O)c3c(O)c4ccccc4oc3=O)c2c1 (stereo not given): 1.56

For COc1ccc2oc(=O)cc(C3C(C#N)=C(N)Oc4c3c(=O)oc3ccccc43)c2c1 (stereo not given) on Pseudomonas aeruginosa, measured MIC was 1.56

For CCOC(=O)C1=C(N)Oc2c(c(=O)oc3ccccc23)C1c1cc(=O)oc2c1ccc1ccccc12 (stereo not given) on Pseudomonas aeruginosa, measured MIC was 1.56

For CCOC(=O)C1=C(N)Oc2c(c(=O)oc3ccccc23)C1c1cc(=O)oc2cc(C)ccc12 (stereo not given) on Pseudomonas aeruginosa, measured MIC was 6.25
